tested system: His6-AspH315–758 (human aspartate/asparagine-β-hydroxylase, AspH) (Homo sapiens, UniProt Q12797)
Construct: N-Terminally His6-tagged human AspH315–758 (His6-AspH315–758) was produced in E. coli BL21 (DE3) cells; made in house; host or cells: E. coli BL21 (DE3), pET-28a(+) vector
Sequence (Q12797 315-758): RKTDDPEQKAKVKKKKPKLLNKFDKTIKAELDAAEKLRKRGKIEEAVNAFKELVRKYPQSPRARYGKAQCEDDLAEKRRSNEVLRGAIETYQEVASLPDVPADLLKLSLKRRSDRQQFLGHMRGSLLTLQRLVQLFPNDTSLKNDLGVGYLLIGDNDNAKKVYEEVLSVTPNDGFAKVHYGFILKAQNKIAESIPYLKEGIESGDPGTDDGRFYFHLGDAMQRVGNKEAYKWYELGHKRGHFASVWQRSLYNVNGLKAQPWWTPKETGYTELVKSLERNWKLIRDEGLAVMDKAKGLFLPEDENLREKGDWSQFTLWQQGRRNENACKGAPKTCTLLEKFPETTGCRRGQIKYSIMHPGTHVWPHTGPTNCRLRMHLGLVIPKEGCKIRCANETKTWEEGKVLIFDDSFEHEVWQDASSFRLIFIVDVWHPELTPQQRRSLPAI
protocol: SPE-MS AspH inhibition assay (LOPAC screen at fixed 20 μM and IC50 dose-response), hydroxylation of cyclic peptide hFX-CP101–119
Format: biochemical
experimental setup: LOPAC Plate 4, compound at 20 uM, substrate conversion
Counter-ions that a name gives are not always drawn.
measured property: % conversion (%)

| compound | measured property | experimental value |
| --- | --- | --- |
| CCCN(CCc1ccccc1)C1CCc2c(O)cccc2C1.Cl (racemic) [(±)-PPHT hydrochloride] | % conversion | 27.49 |
| Cc1cccc(C(=O)NCN2CCN(c3ccccc3C#N)CC2)c1.O=C(O)/C=C\C(=O)O [PD 168,077 maleate] | % conversion | 35.88 |
| CCNc1nc2c(ncn2[C@H]2C[C@H](O)[C@@H](CO)O2)c(=O)[nH]1 [N2-Ethyl-2-deoxyguanosine] | % conversion | 26.09 |
| Nc1nc(Nc2ccccc2)nc2c1ncn2[C@@H]1O[C@H](CO)[C@@H](O)[C@H]1O [2-Phenylaminoadenosine] | % conversion | 40.09 |
| Cc1nc2ccccn2c(=O)c1CCN1CCC(C(=O)c2ccc(F)cc2)CC1 [Pirenperone] | % conversion | 26.88 |
| CC(=O)Oc1cc(C(F)(F)F)ccc1C(=O)O [Triflusal] | % conversion | 27.02 |
| Cc1ccc(S(=O)(=O)NC(=O)NN2CCCCCC2)cc1 [Tolazamide] | % conversion | 36.66 |
| CCCN[C@H]1CCc2nc(N)sc2C1 [Pramipexole dihydrochloride] | % conversion | 39.77 |

----------
tested system: His6-AspH315–758 (human aspartate/asparagine-β-hydroxylase, AspH) (Homo sapiens, UniProt Q12797)
Construct: N-Terminally His6-tagged human AspH315–758 (His6-AspH315–758) was produced in E. coli BL21 (DE3) cells; made in house; host or cells: E. coli BL21 (DE3), pET-28a(+) vector
protocol: SPE-MS AspH inhibition assay (LOPAC screen at fixed 20 μM and IC50 dose-response), hydroxylation of cyclic peptide hFX-CP101–119
Assay type: biochemical
experimental setup: LOPAC compound at fixed 20 uM; substrate conversion, plate 1
Structures can show the parent of a compound that is named as a salt.
Entries annotated with measured Plate 1 (% conversion)

| compound | readout unit | Plate 1 (% conversion) |
| --- | --- | --- |
| Nn1nnc2ccccc21 [1-Aminobenzotriazole] | % | 37.48 |
| NC[C@H](O)c1ccc(O)c(O)c1.O=C(O)C(O)C(O)C(=O)O (racemic) [(±)-Norepinephrine (+)bitartrate] | % | 4.78 |
| COC(=O)C(N)Cc1ccc(Cl)cc1.Cl (racemic) | % | 35.38 |
| N=C(N)NC(=O)c1nc(Cl)c(N)nc1N [Amiloride hydrochloride] | % | 34.32 |
| CCN(CC)c1ncnc2c1ncn2[C@@H]1O[C@H](COP(=O)([O-])OP(=O)([O-])C(Br)(Br)P(=O)([O-])O)[C@@H](O)[C@H]1O.[Na+].[Na+].[Na+] [ARL 67156 trisodium salt] | % | 8.30 |
| N[C@H]1CON=C1O [L-Cycloserine] | % | 36.69 |
| Brc1ccc([C@H]2CN3CCSC3=N2)cc1.O=C(O)C(=O)O [S(-)-p-Bromotetramisole oxalate] | % | 10.54 |
| NC12CC3CC(CC(C3)C1)C2 [Amantadine hydrochloride] | % | 36.49 |
| N[C@@H](CC(=O)O)C(=O)O [L-Aspartic acid] | % | 36.94 |
| CC(=O)c1ccc(S(=O)(=O)NC(=O)NC2CCCCC2)cc1 [Acetohexamide] | % | 38.01 |
| N=C(N)c1ccccc1 [Benzamidine hydrochloride] | % | 36.35 |
| NC/C=C\C(=O)O [cis-4-Aminocrotonic acid] | % | 38.68 |
| O=C(O)/C=C/c1ccc(O)c(O)c1 [caffeic acid, reference compound] | % | 3.16 |
| CN(C)c1nc(N)c(C(=O)NC(=N)N)nc1Cl [5-(N,N-Dimethyl)amiloride hydrochloride] | % | 38.07 |
| NC1(C(=O)O)CCc2cc(C(=O)O)ccc21 (centres unmarked) [AIDA] | % | 34.83 |
| CC(=O)OC(C)C[N+](C)(C)C.[Cl-] (stereo not drawn) [Acetyl-beta-methylcholine chloride] | % | 41.13 |
| CCc1ccc2c(-c3cccc(Cl)c3)nc(=O)n(CC)c2n1 [YM 976] | % | 41.61 |
| CN1[C@@H]2CC[C@H]1C[C@@H](OC(c1ccccc1)c1ccccc1)C2 [Benztropine mesylate] | % | 39.14 |
| Cn1c(=O)c2[nH]cnc2n(C)c1=O.Cn1c(=O)c2[nH]cnc2n(C)c1=O.NCCN [Aminophylline ethylenediamine] | % | 38.90 |
| CCCc1nn(C)c2c(=O)[nH]c(-c3cc(S(=O)(=O)N4CCN(C)CC4)ccc3OCC)nc12.O=C(O)CC(O)(CC(=O)O)C(=O)O [Sildenafil citrate salt] | % | 7.89 |
| Cc1cn([C@H]2C[C@H](N=[N+]=[N-])[C@@H](CO)O2)c(=O)[nH]c1=O [3-Azido-3-deoxythymidine] | % | 38.30 |
| CC(N)=O [Acetamide] | % | 35.56 |
| N=C(N)NC(=O)c1nc(Cl)c(N2CCCCCC2)nc1N [5-(N,N-hexamethylene)amiloride] | % | 45.32 |
| O=C(O)C(O)C(O)C(=O)O.c1cnc2cc3c(cc2n1)[C@@H]1CNC[C@H]3C1 [Varenicline tartrate] | % | 13.40 |
| CN(C)CCCN1c2ccccc2Sc2ccc(Cl)cc21 [Chlorpromazine hydrochloride] | % | 45.76 |
| CN(C)CC[C@@H](c1ccc(Br)cc1)c1ccccn1 [(+)-Brompheniramine maleate] | % | 35.53 |
| CCCCNc1cc(C(=O)O)cc(S(N)(=O)=O)c1Oc1ccccc1 [Bumetanide] | % | 34.84 |
| CCN(CC)CCNC(=O)c1ccc(NC(C)=O)cc1.Cl [N-Acetylprocainamide hydrochloride] | % | 34.63 |
| CC[C@H]1OC(=O)[C@H](C)[C@@H](O[C@H]2C[C@@](C)(OC)[C@@H](O)[C@H](C)O2)[C@H](C)[C@@H](O[C@@H]2O[C@H](C)C[C@H](N(C)C)[C@H]2O)[C@](C)(O)C[C@@H](C)CN(C)[C@H](C)[C@@H](O)[C@]1(C)O [Azithromycin dihydrate] | % | 40.39 |
| CCC(C)N(C)C(=O)c1cc2ccccc2c(-c2ccccc2Cl)n1 (centres unmarked) [PK 11195] | % | 39.39 |
| CC(C)(C)NC(=O)[C@@H]1CN(Cc2cccnc2)CCN1C[C@@H](O)C[C@@H](Cc1ccccc1)C(=O)N[C@H]1c2ccccc2C[C@H]1O.O=S(=O)(O)O [Indinavir sulfate salt hydrate] | % | 39.32 |
| OC[C@H]1O[C@@H](n2cnc3c(N[C@H]4CCC[C@@H]4O)ncnc32)[C@H](O)[C@@H]1O [GR 79236X] | % | 38.28 |

----------
# Plate 2 (% conversion) values compiled below
tested system: His6-AspH315–758 (human aspartate/asparagine-β-hydroxylase, AspH) (Homo sapiens, UniProt Q12797)
Construct: N-Terminally His6-tagged human AspH315–758 (His6-AspH315–758) was produced in E. coli BL21 (DE3) cells; made in house; host or cells: E. coli BL21 (DE3), pET-28a(+) vector
protocol: SPE-MS AspH inhibition assay (LOPAC screen at fixed 20 μM and IC50 dose-response), hydroxylation of cyclic peptide hFX-CP101–119
Format: biochemical
Counter-ions that a name gives are not always drawn.

| compound | Plate 2 (% conversion) [%] |
| --- | --- |
| Br.CCCN(CCC)[C@@H]1CCc2cccc(O)c2C1 [R-(+)-8-Hydroxy-DPAT hydrobromide] | 39.31 |
| O=C1C(SCCO)=C(SCCO)C(=O)c2ccccc21 [NSC 95397] | 23.59 |
| Br.NCc1cc(O)no1 [Muscimol hydrobromide] | 37.87 |
| Cl.OCc1c[nH]cn1 [4-Imidazolemethanol hydrochloride] | 36.75 |
| CCCCCCN(CCCCCC)C(=O)Cc1c(-c2ccc(F)cc2)[nH]c2ccccc12 | 35.52 |
| COc1ccc(C(CN(C)C)C2(O)CCCCC2)cc1 (stereo not drawn) [Venlafaxine hydrochloride] | 36.45 |
| Cn1c(=O)c2c(nc(C=Cc3cccc(Cl)c3)n2C)n(C)c1=O [8-(3-Chlorostyryl)caffeine] | 38.57 |
| Cl.Cl.c1ccc(CCCN2CCN(CCOC(c3ccccc3)c3ccccc3)CC2)cc1 [GBR-12935 dihydrochloride] | 46.64 |
| Cc1cc(O)c2c(c1)C(=O)c1cc(O)cc(O)c1C2=O [Emodin] | 37.82 |
